Biological target: Bromodomain and PHD finger-containing protein 3 (Homo sapiens, UniProt Q9ULD4)
Experiment: BRPF3 DiscoverX BROMOscan
Assay Endpoint: pKd
Answers are plain numbers, as −log10 of the molar value.

# return pKd for CNC(=O)c1cc(C(=O)NC2CC2)cn(Cc2ccccc2)c1=O , test system: Bromodomain and PHD finger-containing protein 3 (Homo sapiens, UniProt Q9ULD4)
4.50

* * *

Biological target: Bromodomain-containing protein 9 (Homo sapiens, UniProt Q9H8M2)
Sequence (Q9H8M2 whole entry): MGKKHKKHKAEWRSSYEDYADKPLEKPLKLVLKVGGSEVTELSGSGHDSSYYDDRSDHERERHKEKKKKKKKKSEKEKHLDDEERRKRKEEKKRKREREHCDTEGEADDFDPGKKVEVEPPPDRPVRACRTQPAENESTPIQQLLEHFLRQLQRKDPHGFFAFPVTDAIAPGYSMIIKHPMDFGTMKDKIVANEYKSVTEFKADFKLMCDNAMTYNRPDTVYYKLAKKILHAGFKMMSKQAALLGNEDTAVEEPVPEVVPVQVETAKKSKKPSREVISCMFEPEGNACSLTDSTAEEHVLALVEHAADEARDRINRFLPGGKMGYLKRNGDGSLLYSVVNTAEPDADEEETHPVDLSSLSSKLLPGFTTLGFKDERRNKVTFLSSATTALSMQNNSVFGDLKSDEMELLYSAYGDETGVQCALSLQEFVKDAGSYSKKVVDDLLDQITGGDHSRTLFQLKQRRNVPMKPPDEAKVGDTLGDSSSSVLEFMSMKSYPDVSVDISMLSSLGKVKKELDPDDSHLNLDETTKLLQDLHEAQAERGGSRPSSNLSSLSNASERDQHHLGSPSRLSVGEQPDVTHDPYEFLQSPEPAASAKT
Assay: BRD9 DiscoverX BROMOscan
Assay Endpoint: pKd
Give bare numbers, as −log10 of the molar value.

# return pKd for CNC(=O)c1cc(C(=O)NC2CC2)cn(Cc2ccccc2)c1=O , test system: Bromodomain-containing protein 9 (Homo sapiens, UniProt Q9H8M2)
4.50

* * *

Molecular target: Beta-2 adrenergic receptor (Homo sapiens, UniProt P07550)
Sequence (P07550 whole entry): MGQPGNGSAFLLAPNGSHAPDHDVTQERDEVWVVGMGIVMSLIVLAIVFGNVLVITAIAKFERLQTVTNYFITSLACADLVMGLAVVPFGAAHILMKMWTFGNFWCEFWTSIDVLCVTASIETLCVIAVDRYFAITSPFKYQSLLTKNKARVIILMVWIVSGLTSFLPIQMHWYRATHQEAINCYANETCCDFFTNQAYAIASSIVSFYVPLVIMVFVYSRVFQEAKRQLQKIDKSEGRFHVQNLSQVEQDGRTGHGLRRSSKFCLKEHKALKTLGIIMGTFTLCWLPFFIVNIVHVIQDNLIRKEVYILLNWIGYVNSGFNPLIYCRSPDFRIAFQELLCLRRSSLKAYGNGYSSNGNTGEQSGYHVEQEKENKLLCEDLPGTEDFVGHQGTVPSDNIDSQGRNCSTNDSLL
Assay Endpoint: IC50

# return IC50 for CNC(=O)c1cc(C(=O)NC2CC2)cn(Cc2ccccc2)c1=O [GSK620] , test system: Beta-2 adrenergic receptor (Homo sapiens, UniProt P07550)
> 100 µM

* * *

Biological target: 5-hydroxytryptamine receptor 2A (Homo sapiens)
Sequence (P28223 whole entry): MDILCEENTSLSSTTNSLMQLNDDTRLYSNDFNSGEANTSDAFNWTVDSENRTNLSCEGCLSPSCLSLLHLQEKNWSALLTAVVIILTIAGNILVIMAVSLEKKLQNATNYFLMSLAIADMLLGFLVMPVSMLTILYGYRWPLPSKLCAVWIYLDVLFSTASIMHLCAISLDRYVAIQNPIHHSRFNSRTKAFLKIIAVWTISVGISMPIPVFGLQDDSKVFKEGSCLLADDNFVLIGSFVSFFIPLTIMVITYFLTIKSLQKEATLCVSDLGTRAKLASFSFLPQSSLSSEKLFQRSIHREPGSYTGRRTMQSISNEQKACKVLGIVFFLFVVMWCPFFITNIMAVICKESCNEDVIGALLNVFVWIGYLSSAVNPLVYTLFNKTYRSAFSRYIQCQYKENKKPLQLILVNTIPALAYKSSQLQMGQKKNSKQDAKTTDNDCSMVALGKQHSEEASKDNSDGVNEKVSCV
Experiment: Cross screening panel
pEC50: −log10 of the molar value.
Assay Endpoint: pEC50

Provide only the value of recorded pEC50 for CNC(=O)c1cc(C(=O)NC2CC2)cn(Cc2ccccc2)c1=O [GSK620]
< 4.60

* * *

Target: UniProtKB Q13224
Assay: Cross screening panel
Assay Endpoint: IC50

Provide only the value of recorded IC50 for CNC(=O)c1cc(C(=O)NC2CC2)cn(Cc2ccccc2)c1=O [GSK620]
> 50.1 µM

* * *

Target: 5-hydroxytryptamine receptor 1B (Homo sapiens)
Sequence (P28222 whole entry): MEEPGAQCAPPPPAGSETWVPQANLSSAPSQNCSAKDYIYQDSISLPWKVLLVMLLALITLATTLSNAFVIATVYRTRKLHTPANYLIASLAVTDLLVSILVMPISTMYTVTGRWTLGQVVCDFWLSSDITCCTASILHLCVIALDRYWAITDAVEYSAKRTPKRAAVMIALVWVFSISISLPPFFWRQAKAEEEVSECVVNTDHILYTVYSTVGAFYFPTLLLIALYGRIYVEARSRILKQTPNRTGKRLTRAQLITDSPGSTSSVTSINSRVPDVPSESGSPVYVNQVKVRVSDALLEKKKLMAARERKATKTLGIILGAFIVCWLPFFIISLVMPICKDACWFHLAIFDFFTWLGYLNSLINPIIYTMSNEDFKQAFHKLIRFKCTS
Assay: Cross screening panel
Assay Endpoint: EC50

Provide only the value of recorded EC50 for CNC(=O)c1cc(C(=O)NC2CC2)cn(Cc2ccccc2)c1=O
> 100 µM

* * *

Molecular target: Muscarinic acetylcholine receptor M2 (Homo sapiens)
Sequence (P08172 whole entry): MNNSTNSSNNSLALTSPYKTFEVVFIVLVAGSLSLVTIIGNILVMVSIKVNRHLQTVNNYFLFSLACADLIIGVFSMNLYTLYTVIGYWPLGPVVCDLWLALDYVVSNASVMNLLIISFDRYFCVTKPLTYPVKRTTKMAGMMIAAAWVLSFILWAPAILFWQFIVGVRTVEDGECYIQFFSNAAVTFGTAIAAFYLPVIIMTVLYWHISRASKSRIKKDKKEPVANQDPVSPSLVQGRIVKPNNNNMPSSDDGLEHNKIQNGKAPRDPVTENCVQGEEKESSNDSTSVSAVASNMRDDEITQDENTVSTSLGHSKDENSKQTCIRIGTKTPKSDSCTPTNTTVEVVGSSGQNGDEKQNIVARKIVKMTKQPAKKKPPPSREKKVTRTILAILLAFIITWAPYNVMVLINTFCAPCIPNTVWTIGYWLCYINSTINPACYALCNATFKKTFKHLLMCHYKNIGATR
Test: Cross screening panel
Assay Endpoint: EC50

Provide only the value of recorded EC50 for CNC(=O)c1cc(C(=O)NC2CC2)cn(Cc2ccccc2)c1=O
> 50.1 µM

* * *

Target: Tyrosine-protein kinase Lck (Homo sapiens, UniProt P06239)
Sequence (P06239 whole entry): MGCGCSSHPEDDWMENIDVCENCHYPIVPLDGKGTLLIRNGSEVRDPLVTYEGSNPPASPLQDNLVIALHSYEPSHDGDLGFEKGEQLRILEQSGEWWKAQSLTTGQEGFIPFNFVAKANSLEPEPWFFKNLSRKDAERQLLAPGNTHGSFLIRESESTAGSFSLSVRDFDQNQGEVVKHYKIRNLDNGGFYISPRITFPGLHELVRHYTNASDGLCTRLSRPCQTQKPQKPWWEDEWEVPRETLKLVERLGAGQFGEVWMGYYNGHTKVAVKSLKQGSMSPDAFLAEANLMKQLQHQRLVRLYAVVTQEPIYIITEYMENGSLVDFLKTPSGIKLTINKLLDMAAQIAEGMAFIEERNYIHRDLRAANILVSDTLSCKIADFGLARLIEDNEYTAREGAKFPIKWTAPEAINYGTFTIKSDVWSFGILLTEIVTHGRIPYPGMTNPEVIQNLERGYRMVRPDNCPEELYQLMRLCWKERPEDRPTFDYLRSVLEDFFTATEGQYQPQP
pIC50: −log10 of the molar value.
Assay Endpoint: pIC50

# return pIC50 for CNC(=O)c1cc(C(=O)NC2CC2)cn(Cc2ccccc2)c1=O [GSK620] , test system: Tyrosine-protein kinase Lck (Homo sapiens, UniProt P06239)
< 4.50

* * *

Molecular target: Acetylcholine receptor subunit alpha (Homo sapiens, UniProt P02708)
Experiment: Cross screening panel
pEC50: −log10 of the molar value.
Assay Endpoint: pEC50

# return pEC50 for CNC(=O)c1cc(C(=O)NC2CC2)cn(Cc2ccccc2)c1=O , test system: Acetylcholine receptor subunit alpha (Homo sapiens, UniProt P02708)
< 4.30

* * *

Target: Voltage-dependent L-type calcium channel subunit alpha-1C (Homo sapiens, UniProt Q13936)
Sequence (Q13936 whole entry): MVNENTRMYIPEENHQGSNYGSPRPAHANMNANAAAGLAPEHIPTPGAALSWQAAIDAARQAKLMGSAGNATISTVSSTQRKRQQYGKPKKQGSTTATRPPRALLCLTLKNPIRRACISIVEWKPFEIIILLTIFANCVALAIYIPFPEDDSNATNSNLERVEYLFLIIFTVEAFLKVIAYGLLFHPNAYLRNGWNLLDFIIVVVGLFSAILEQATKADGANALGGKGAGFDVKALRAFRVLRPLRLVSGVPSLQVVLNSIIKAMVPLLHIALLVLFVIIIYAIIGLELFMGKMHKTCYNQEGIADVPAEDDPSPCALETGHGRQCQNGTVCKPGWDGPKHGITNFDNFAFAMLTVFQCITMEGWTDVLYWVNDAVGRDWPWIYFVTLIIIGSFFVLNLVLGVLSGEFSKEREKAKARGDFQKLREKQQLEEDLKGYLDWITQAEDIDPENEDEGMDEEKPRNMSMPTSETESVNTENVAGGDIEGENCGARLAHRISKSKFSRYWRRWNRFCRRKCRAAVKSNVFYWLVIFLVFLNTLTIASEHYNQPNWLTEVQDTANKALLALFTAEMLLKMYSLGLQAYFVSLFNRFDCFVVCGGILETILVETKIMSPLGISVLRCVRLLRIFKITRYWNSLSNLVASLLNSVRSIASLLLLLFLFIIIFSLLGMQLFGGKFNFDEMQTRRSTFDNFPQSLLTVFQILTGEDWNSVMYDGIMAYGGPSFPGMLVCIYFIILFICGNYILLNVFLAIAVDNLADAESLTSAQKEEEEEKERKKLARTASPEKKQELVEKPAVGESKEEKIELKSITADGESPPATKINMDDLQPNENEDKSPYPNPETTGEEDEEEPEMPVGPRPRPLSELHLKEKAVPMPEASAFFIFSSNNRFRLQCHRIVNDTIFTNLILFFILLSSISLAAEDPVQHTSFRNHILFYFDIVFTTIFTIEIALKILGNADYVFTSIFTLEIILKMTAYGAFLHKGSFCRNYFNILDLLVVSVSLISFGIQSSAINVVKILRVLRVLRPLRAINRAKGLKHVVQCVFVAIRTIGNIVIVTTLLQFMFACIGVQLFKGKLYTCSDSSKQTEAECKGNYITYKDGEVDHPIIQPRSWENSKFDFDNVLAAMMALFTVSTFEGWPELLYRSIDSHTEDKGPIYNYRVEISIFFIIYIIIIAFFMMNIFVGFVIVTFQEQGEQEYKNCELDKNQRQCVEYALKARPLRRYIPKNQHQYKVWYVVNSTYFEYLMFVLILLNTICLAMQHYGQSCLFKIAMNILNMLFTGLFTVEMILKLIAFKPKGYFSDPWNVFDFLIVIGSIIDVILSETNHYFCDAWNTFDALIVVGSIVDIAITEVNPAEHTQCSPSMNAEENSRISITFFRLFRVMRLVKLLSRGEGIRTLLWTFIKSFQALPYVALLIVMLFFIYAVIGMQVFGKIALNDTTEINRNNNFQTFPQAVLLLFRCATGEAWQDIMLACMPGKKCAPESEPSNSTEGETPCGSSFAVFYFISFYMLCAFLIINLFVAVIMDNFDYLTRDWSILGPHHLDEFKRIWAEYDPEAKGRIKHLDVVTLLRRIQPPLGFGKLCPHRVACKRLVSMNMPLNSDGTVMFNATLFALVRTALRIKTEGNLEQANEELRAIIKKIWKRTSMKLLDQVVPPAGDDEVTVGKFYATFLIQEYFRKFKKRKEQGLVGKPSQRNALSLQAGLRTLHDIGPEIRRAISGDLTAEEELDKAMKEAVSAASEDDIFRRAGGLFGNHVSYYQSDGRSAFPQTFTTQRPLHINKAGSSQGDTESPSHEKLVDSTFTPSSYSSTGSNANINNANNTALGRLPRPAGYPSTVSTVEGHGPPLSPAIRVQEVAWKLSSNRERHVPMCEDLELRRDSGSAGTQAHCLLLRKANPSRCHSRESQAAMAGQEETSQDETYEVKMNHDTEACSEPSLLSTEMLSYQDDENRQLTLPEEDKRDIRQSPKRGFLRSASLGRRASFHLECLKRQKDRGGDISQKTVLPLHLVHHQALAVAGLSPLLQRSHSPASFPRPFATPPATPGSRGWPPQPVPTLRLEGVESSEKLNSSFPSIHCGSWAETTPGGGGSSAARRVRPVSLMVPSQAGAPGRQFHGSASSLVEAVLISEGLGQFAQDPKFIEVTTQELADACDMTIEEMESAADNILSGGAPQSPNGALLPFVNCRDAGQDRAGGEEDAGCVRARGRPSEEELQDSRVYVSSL
Assay: Cross screening panel
Assay Endpoint: IC50
Please don't drop the unit; write it after the number.

Provide only the value of recorded IC50 for CNC(=O)c1cc(C(=O)NC2CC2)cn(Cc2ccccc2)c1=O
79.4 µM

* * *

Target: ATPase family AAA domain-containing protein 2B (Homo sapiens, UniProt Q9ULI0)
Experiment: ATAD2B DiscoverX BROMOscan
Assay Endpoint: pKd
Numbers only, as −log10 of the molar value.

Provide only the value of recorded pKd for CNC(=O)c1cc(C(=O)NC2CC2)cn(Cc2ccccc2)c1=O
4.50
